SYSTEM: SARS-COV2-S1 RBD (mouse IgG2Fc tag) (SARS-CoV-2, UniProt P0DTC2 319-537)
PROTOCOL_TEXT: column not explained; likely FACS, S1 RBD on Vero E6
Property: MFI Fold Decrease; scope: individual binders
Return type: number; implicit unit fold.

variant 5-20 (Fc fusion) VHH: EVQLVESGGGLVQPGGSLRLSCAASGRTIVPYTMGWFRQAPGKERELVAAISPSAFTEYADSVKGRFTISADNSKNTAYLQMNSLKPEDTAVYYCAARRWGYDWGQGTLVTVSS; 12.4
variant 5-34 (Fc fusion) VHH: EVQLVESGGGLVQPGGSLRLSCAASGRTFSRYIMGWFRQAPGKEREFVAAISWSGGDNTYYADSVKGRFTISADNSKNTAYLQMNSLKPEDTAVYYCAAYRIVVGGTSPGDWRWGQGTLVTVSS; 5.69
variant 5-1 (Fc fusion) VHH: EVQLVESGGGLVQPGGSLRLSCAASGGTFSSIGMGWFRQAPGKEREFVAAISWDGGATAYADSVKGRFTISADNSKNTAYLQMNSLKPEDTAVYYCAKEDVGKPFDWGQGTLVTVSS; 10

Now, please, on to the next binder.
**Q:** Sample variant 6-78 (Fc fusion) VHH: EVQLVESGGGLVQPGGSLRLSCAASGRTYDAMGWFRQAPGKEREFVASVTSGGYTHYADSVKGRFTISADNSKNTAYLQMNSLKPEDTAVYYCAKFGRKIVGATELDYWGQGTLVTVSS — what was its MFI Fold Decrease?
**A:** 9.27
